- Assay type: in vivo, human
- PROTOCOL_CONDITIONS: human, plasma, oral, 400 mg/day, Tmax, Panel 1 (MT), Dose 1; median (range)
PROPERTY_NAME: Tmax (h)
State just the number; it will be interpreted in h.

Qu. Identify the reported Tmax for the following entry. O=C(O)[C@]1(Cc2cccc(Nc3nccs3)n2)CC[C@@H](Oc2cccc(Cl)c2F)CC1 [MK-5108]
Ans. 2

###

- Format: in vivo, human
- PROTOCOL_CONDITIONS: human, plasma, oral, 1500 mg/day, t1/2, 1500 mg/day, Panel 1 (MT), Dose 4
PROPERTY_NAME: half-life (h)
Answer with a number only, understood to be in h.

Qu. Answer with the recorded half-life for the compound listed here: O=C(O)[C@]1(Cc2cccc(Nc3nccs3)n2)CC[C@@H](Oc2cccc(Cl)c2F)CC1 [MK-5108]
Ans. 11.4

###

- Format: in vivo, human
- PROTOCOL_CONDITIONS: human, plasma, iv, C12h, 100 mg/day, Panel 2 (CT, docetaxel 60 mg/m^2 IV), Dose 4
PROPERTY_NAME: concentration at 12 h (nM)
Kindly provide the numeric value in nM only, without the unit symbol.

Qu. Specify concentration at 12 h for O=C(O)[C@]1(Cc2cccc(Nc3nccs3)n2)CC[C@@H](Oc2cccc(Cl)c2F)CC1 and stop.
Ans. 210

###

- Format: in vivo, human
- PROTOCOL_CONDITIONS: human, plasma, oral, 400 mg/day, C12h, Panel 1 (MT), Dose 4
PROPERTY_NAME: concentration at 12 h (nM)
Respond numerically; units are nM and should not be typed.

Qu. Please report the measured concentration at 12 h for O=C(O)[C@]1(Cc2cccc(Nc3nccs3)n2)CC[C@@H](Oc2cccc(Cl)c2F)CC1
Ans. 2020

###

- Assay type: in vivo, human
- PROTOCOL_CONDITIONS: human, plasma, oral, 400 mg/day, C12h, Panel 1 (MT), Dose 1
PROPERTY_NAME: concentration at 12 h (nM)
Answer format: numeric, nM implied, no suffix.

Qu. Identify concentration at 12 h associated with the molecule O=C(O)[C@]1(Cc2cccc(Nc3nccs3)n2)CC[C@@H](Oc2cccc(Cl)c2F)CC1 [MK-5108]
Ans. 250

###

- Type: in vivo, human
- PROTOCOL_CONDITIONS: human, plasma, iv, 60 mg/m2, Tmax, 150 mg/day, Panel 2 (CT, docetaxel 60 mg/m^2 IV), Dose 1; median (range)
PROPERTY_NAME: Tmax (h)
The reply should be a number in h, with the unit left off.

Qu. Name the recorded Tmax of the item O=C(O)[C@]1(Cc2cccc(Nc3nccs3)n2)CC[C@@H](Oc2cccc(Cl)c2F)CC1 in your answer.
Ans. 3.5

###

- Assay type: in vivo, human
- PROTOCOL_CONDITIONS: human, plasma, oral, 800 mg/day, t1/2, 800 mg/day, Panel 1 (MT), Dose 4
PROPERTY_NAME: half-life (min)
Hi! Could you send only the number? It should be in min, unit omitted.

Qu. Supply measured half-life of O=C(O)[C@]1(Cc2cccc(Nc3nccs3)n2)CC[C@@H](Oc2cccc(Cl)c2F)CC1 in your reply.
Ans. 666

###

- Type: in vivo, human
- PROTOCOL_CONDITIONS: human, plasma, oral, 800 mg/day, Cmax, Panel 1 (MT), Dose 4
PROPERTY_NAME: Cmax (µM)
Form entry: value (µM) — number only.

Qu. Hello, please tell me recorded Cmax for this one: O=C(O)[C@]1(Cc2cccc(Nc3nccs3)n2)CC[C@@H](Oc2cccc(Cl)c2F)CC1
Ans. 20

###

- Type: in vivo, human
- PROTOCOL_CONDITIONS: human, plasma, oral, 1500 mg/day, C12h, Panel 1 (MT), Dose 4
PROPERTY_NAME: concentration at 12 h (nM)
State the answer as a number, implicitly in nM.

Qu. For the compound O=C(O)[C@]1(Cc2cccc(Nc3nccs3)n2)CC[C@@H](Oc2cccc(Cl)c2F)CC1 [MK-5108] , give its reported concentration at 12 h.
Ans. 2800

###

- Type: in vivo, human
- PROTOCOL_CONDITIONS: human, plasma, oral, 1800 mg/day, C12h, Panel 1 (MT), Dose 1
PROPERTY_NAME: concentration at 12 h (µM)
Give the quantity in µM, number only.

Qu. Look up and state reported concentration at 12 h for O=C(O)[C@]1(Cc2cccc(Nc3nccs3)n2)CC[C@@H](Oc2cccc(Cl)c2F)CC1
Ans. 4.78

###

- Type: in vivo, human
- PROTOCOL_CONDITIONS: human, plasma, oral, 1500 mg/day, Tmax, Panel 1 (MT), Dose 1; median (range)
PROPERTY_NAME: Tmax (h)
The reply should contain only the number, in h.

Qu. Let me know recorded Tmax for O=C(O)[C@]1(Cc2cccc(Nc3nccs3)n2)CC[C@@H](Oc2cccc(Cl)c2F)CC1 [MK-5108] , thanks.
Ans. 2

###

- Type: in vivo, human
- PROTOCOL_CONDITIONS: human, plasma, oral, 1200 mg/day, Tmax, Panel 1 (MT), Dose 1; median (range)
PROPERTY_NAME: Tmax (h)
Please give a number only; it is taken to be in h.

Qu. Specify reported Tmax for the compound shown: O=C(O)[C@]1(Cc2cccc(Nc3nccs3)n2)CC[C@@H](Oc2cccc(Cl)c2F)CC1
Ans. 2

###

- Type: in vivo, human
- PROTOCOL_CONDITIONS: human, plasma, oral, t1/2 range (variable), following Dose 4
PROPERTY_NAME: half-life

Qu. Dear colleague, please send me the reported half-life for O=C(O)[C@]1(Cc2cccc(Nc3nccs3)n2)CC[C@@H](Oc2cccc(Cl)c2F)CC1 when you can.
Ans. 5 to 29 h

###

- Assay type: in vivo, human
- PROTOCOL_CONDITIONS: human, plasma, oral, 200 mg/day, Cmax, Panel 1 (MT), Dose 1
PROPERTY_NAME: Cmax (µM)
Entry rule: numbers only, all in µM.

Qu. Supply measured Cmax of O=C(O)[C@]1(Cc2cccc(Nc3nccs3)n2)CC[C@@H](Oc2cccc(Cl)c2F)CC1 in your reply.
Ans. 3.9

###

- Assay type: in vivo, human
- PROTOCOL_CONDITIONS: human, plasma, iv, 60 mg/m2, AUC0-12h, 100 mg/day, Panel 2 (CT, docetaxel 60 mg/m^2 IV), Dose 1
PROPERTY_NAME: AUC(0-t)

Qu. Please indicate AUC(0-t) recorded for O=C(O)[C@]1(Cc2cccc(Nc3nccs3)n2)CC[C@@H](Oc2cccc(Cl)c2F)CC1
Ans. 7.9 µM·h

###

- Format: in vivo, human
- PROTOCOL_CONDITIONS: human, plasma, oral, 800 mg/day, Tmax, Panel 1 (MT), Dose 1; median (range)
PROPERTY_NAME: Tmax (h)
Number in h, nothing else.

Qu. Note Tmax for the compound shown: O=C(O)[C@]1(Cc2cccc(Nc3nccs3)n2)CC[C@@H](Oc2cccc(Cl)c2F)CC1
Ans. 1

###

- Format: in vivo, human
- PROTOCOL_CONDITIONS: human, plasma, oral, 1800 mg/day, AUC0-12h, Panel 1 (MT), Dose 1
PROPERTY_NAME: AUC(0-t) (µM·h)
Give the value in µM·h but do not write µM·h after it.

Qu. Provide measured AUC(0-t) value, entry: O=C(O)[C@]1(Cc2cccc(Nc3nccs3)n2)CC[C@@H](Oc2cccc(Cl)c2F)CC1
Ans. 101

###

- Type: in vivo, human
- PROTOCOL_CONDITIONS: human, plasma, oral, 1800 mg/day, Tmax, Panel 1 (MT), Dose 4; median (range)
PROPERTY_NAME: Tmax (h)
Number only, in h; omit the unit.

Qu. State, in one line, measured Tmax of O=C(O)[C@]1(Cc2cccc(Nc3nccs3)n2)CC[C@@H](Oc2cccc(Cl)c2F)CC1
Ans. 3

###

- Format: in vivo, human
- PROTOCOL_CONDITIONS: human, plasma, oral, 1200 mg/day, Tmax, Panel 1 (MT), Dose 4; median (range)
PROPERTY_NAME: Tmax (h)
The answer is to be given in h; state only the numeric part.

Qu. Kindly indicate its recorded Tmax. Item: O=C(O)[C@]1(Cc2cccc(Nc3nccs3)n2)CC[C@@H](Oc2cccc(Cl)c2F)CC1 [MK-5108]
Ans. 3

###

- Type: in vivo, human
- PROTOCOL_CONDITIONS: human, plasma, oral, Median Tmax, following the first dose, across dose levels
PROPERTY_NAME: Tmax

Qu. Return Tmax (reported value) for this compound: O=C(O)[C@]1(Cc2cccc(Nc3nccs3)n2)CC[C@@H](Oc2cccc(Cl)c2F)CC1 [MK-5108]
Ans. 1 to 4 h

###

- Format: in vivo, human
- PROTOCOL_CONDITIONS: human, plasma, iv, 60 mg/m2, t1/2, 150 mg/day, Panel 2 (CT, docetaxel 60 mg/m^2 IV), Dose 4
PROPERTY_NAME: half-life (h)
Express it in h; write the number only.

Qu. Please give measured half-life of the following entry: O=C(O)[C@]1(Cc2cccc(Nc3nccs3)n2)CC[C@@H](Oc2cccc(Cl)c2F)CC1
Ans. 10.1
